parameter: logP

I have this compound here, CC1CN(N=O)C(C)CN1N=O (configuration not stated) , and I need its recorded logP.
0.15

Another compound to look at: `N#CCCN(CCC#N)N=O`
0.08

Also `CC1CCN(N=O)CC1` , if possible.
1.05

Please answer likewise for CC1CCC(C)N1N=O (configuration not stated)
0.86

// query: `CN(CC(C)(C)C)N=O`
1.34

Record: `CN(N=O)C1CCCCC1`
1.43

Now consider CC1CN(N=O)CC(C)N1 (configuration not stated) and answer again.
0.73

Next: CC1CN(N=O)CC(C)O1 (configuration not stated)
0.32

// repeat for `O=NN1CCCCCCC1` and report
1.48

Another compound: `CN1CCN(N=O)CC1`
0.2

Then `O=NN1CCNCC1` ?
0.18

// query: `CCCCCCCCCCCCN(C)N=O`
2.18

Okay, and `O=NN1CCN(N=O)CC1` ?
-0.85

Param item: `O=NN1CC=CC1`
0.26

What do you get for `CN(C)C(=O)N(C)N=O` ?
0.36

Then this compound: O=NN1CCCC(O)C1 (configuration not stated)
-0.47

How about `O=NN1CCCC1` ?
-0.19

Do the same for CC1CN(N=O)CC(C)N1N=O (configuration not stated) please
0.08

For `CCOCCN(CCOCC)N=O` then?
0.79

And then CC1CCCCN1N=O (configuration not stated) , what is it?
0.71

Now consider `O=NN1CCC(=O)CC1` .
-0.47

Moving on to `O=NN1CCCCCCCC1`
2.04

---

- measurement_notes: method code SF-AS, from DOI: 10.1016/0009-2797(77)90026-6
parameter: logP

Quick one: logP of CC1CN(C(=O)c2ccccc2)CC(C)N1N=O (stereo unspecified) ?
1.04

// same read-out, input: `CCN(N=O)C(=O)N(C)C`
0.71

Repeat for the following compound: `O=NN1CCCN(N=O)CC1`
-0.51

Also need `CC1(C)CCCC(C)(C)N1N=O` , thanks.
2.49

Request: `O=NN1CC=CCC1`
1.18

Now give it for `O=NN1CCC(c2ccccc2)CC1` too.
2.59

# iterate: `O=NN1CCCCC1`
0.63

For CC1CN(N=O)CC(C)N1C(=O)c1ccccc1 (stereo unspecified) then?
1.41

And the next one, CC1CN(N=O)CCN1N=O (stereo unspecified) ?
-0.28

And what about the compound CC1CCCN(N=O)C1 (stereo unspecified) ?
0.99

Request: `O=NN1CCC(O)CC1`
-0.89

Another compound to check: `O=NN(CC(F)(F)F)CC(F)(F)F`
2.15

Proceed to CC1CC(C)CN(N=O)C1 (stereo unspecified)
1.53

Query CC1C(c2ccccc2)OCCN1N=O (stereo unspecified) next
2.09

Next record, please: O=NN1CCC(Br)C(Br)C1 (stereo unspecified)
1.23

`N#CCN(CC#N)N=O` , same question.
0.04
